PROTOCOL_NOTES: IASyS optical biosensor, AVR binding in a biotin cuvette
APPLIED_CONDITIONS: biotin cuvette, 20.0° C.; read-out: Kd calculated from the equilibrium response data
REPORTED_PROPERTY: Kd

Quick check: Kd of AVR3: Recombinant chicken avidin-related protein 3, produced in Sf9 insect cells (protein, UniProt P56733 25-150, looked up) Avidin-related protein 3: ARKCSLTGKWTNNLGSIMTIRAVNSRGEFAGTYLTAVADNPGNIKLSPLLGIQHKRACQPTFGFTVHWNFSESTSVFVGQCFIDRSGKEVLKTKWLQRLAVDDISDDWKATRVGYNNFTRQRTVEE ?
< 10 nM
